All values here come from paper PMC5540273.

tested on: FYN; settings: concentration: 1 μM, replicates: in singlicate; n = 1;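 further: KINOMEscan kinase panel screen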
Consider the cut-off 10%. If the recorded %Inh is strictly smaller, the label is condition met; if not, the label is condition not met.

compound	target_entity	class_label
Nc1nc(-c2ccccc2F)c(-c2ccnc3ccccc23)s1 [GW560459]	FYN	condition not met
CCc1nc(-c2cccc(C)c2)c(-c2ccncc2)s1	FYN	condition met
Cc1c(Cn2c(C)nn3c(=O)cc(N4CCO[C@H](C)C4)nc23)cccc1C(F)(F)F [GSK2373690]	FYN	condition not met
Cc1cccc(-c2cc(-c3c[nH]nc3-c3ccccn3)ccn2)c1 [GW679395]	FYN	condition not met

----------
Reported %Inh values follow for various molecules
system: JAK2(JH1domain-catalytic); details: concentration: 1 μM, replicates: in singlicate; n = 1
parameter: %Inh (%)

mol	reported_measurement
COc1cc2ncn(-c3cc(OCCCc4ccccc4)c(C(N)=O)s3)c2cc1OC	1
COc1cccc(-n2cnc3c(N)ncnc32)c1	44
Cc1ccc(Oc2ccc(Nc3ncnc4cc[nH]c34)cc2C)cn1	18
Fc1cccc(CSc2nnc(-c3ccc4c(c3)CCO4)o2)c1	0
CCC(=O)c1c(-c2ccccc2)c2cc(Cl)ccc2c(=O)n1Cc1cc(S(C)(=O)=O)n(CC(F)F)n1	0
O=C(Nc1ccc2c(c1)OCO2)NC1CCN(c2ccnc(NCc3ccc(F)cc3)n2)CC1	0
COC(=O)c1c(-c2ccccc2)c2cc(Br)ccc2c(=O)n1Cc1ccc(S(C)(=O)=O)cc1	6
CCC(=O)c1c(-c2ccccc2)c2cc(Cl)ccc2c(=O)n1Cc1cc(S(C)(=O)=O)n(CCC(C)(C)O)n1	0
Cc1cccc(-c2nc(Nc3ccc4c(cnn4C)c3)c3ccccc3n2)n1	26
Cn1c(=O)c(F)c(Nc2ccc(I)cc2F)c2c(=O)n(OC[C@H](O)CO)cnc21	9
CCc1ccc(-c2ccc3c(c2)-c2nn(C)cc2S(=O)(=O)N3C)cc1	0
CN1C(=O)C(Nc2cc(Cl)c(O)c(Cl)c2)=C(c2ccc(Cl)cc2)C1=O	0
CCc1nc(-c2cccc(C)c2)c(-c2ccncc2)s1	1
COc1cc2ncn(-c3cc(OCc4ccncc4)c(C(N)=O)s3)c2cc1OC	0
CCC(=O)c1c(-c2ccccc2)c2cc(Cl)ccc2c(=O)n1Cc1cc(S(C)(=O)=O)n(CC(N)=O)n1	0
COc1ccc(-c2cc3c(C)nc(N)nc3n([C@H]3CC[C@H](OCCO)CC3)c2=O)cn1	0
Cl.c1ccc(Cn2cnc3cc(Nc4ncnc5ccccc45)ccc32)cc1	0
COc1ccc(-c2coc3ccc(-c4nnc(SCc5cccc(C#N)c5)o4)cc23)cc1	12
COc1cc2ncn(-c3cc(OCc4ccc(S(C)(=O)=O)cc4)c(C(N)=O)s3)c2cc1OC	18
Cl.NS(=O)(=O)c1cccc(Nc2cc(-c3ccc(F)cc3)n[nH]2)c1	48
COc1cccc(C2=C(N(C)c3ccccc3)C(=O)NC2=O)c1	0
Cc1nn2c(=O)cc(N3CCOCC3)nc2n1Cc1cccc(Cl)c1Cl	6
COc1ccc(-c2cc3c(C)nc(N)nc3n([C@H]3CC[C@H](O)CC3)c2=O)cn1	0

----------
test system: PRKG1; conditions: concentration: 1 μM, replicates: in singlicate; n = 1
Returns one of TRUE or FALSE; TRUE when %Inh is >= 1%.

molecule	target_entity	class_label
COc1ccc(-c2cc3c(C)nc(N)nc3n([C@H]3CC[C@H](OCCO)CC3)c2=O)cn1	PRKG1	FALSE
COc1cc(Nc2ccnc3ccc(C(F)(F)F)cc23)cc(OC)c1OC	PRKG1	TRUE
CN1C(=O)C(Nc2ccccc2)=C(c2ccccc2)C1=O	PRKG1	TRUE
Nc1n[nH]c2nnc(-c3ccccc3)c(-c3ccccc3)c12	PRKG1	FALSE
Cc1cccc(-c2cc(-c3c[nH]nc3-c3ccccn3)ccn2)c1	PRKG1	FALSE
CCCNC(=O)Nc1ccc(Oc2ncnc3ccn(C)c23)cc1	PRKG1	FALSE
COc1ccc(-c2cc3c(C)nc(N)nc3n([C@H]3CC[C@H](O)CC3)c2=O)cn1	PRKG1	FALSE
Cc1nnc(-c2ccc3ncn(-c4ccc(S(C)=O)cc4)c3c2)o1 (stereo not shown)	PRKG1	FALSE
O=C(Nc1ccc2c(c1)OCO2)NC1CCN(c2ccnc(NCc3ccc(F)cc3)n2)CC1	PRKG1	FALSE
COc1cc2ncn(-c3cc(OCCCc4ccccc4)c(C(N)=O)s3)c2cc1OC	PRKG1	FALSE
Cc1nnc(-c2ccc(C)c(-c3ccc(C(=O)O)cc3)c2)o1	PRKG1	FALSE
COc1cccc(C2=C(N(C)c3ccccc3)C(=O)NC2=O)c1	PRKG1	FALSE
Cc1c(Cn2c(C)nn3c(=O)cc(N4CCO[C@H](C)C4)nc23)cccc1C(F)(F)F	PRKG1	TRUE
COc1cc2nccc(Nc3cccc(Oc4ccccc4)c3)c2cc1OC.Cl	PRKG1	TRUE
Nc1ncnc2c1ncn2-c1cccc2ccccc12	PRKG1	FALSE
CCc1nc(-c2cccc(C)c2)c(-c2ccncc2)s1	PRKG1	FALSE
O=C(Nc1n[nH]c2nc(-c3ccccc3)c(Br)cc12)C1CC1	PRKG1	TRUE
COc1ccc(-c2coc3ccc(-c4nnc(SCc5cccc(C#N)c5)o4)cc23)cc1	PRKG1	FALSE
